Molecular target: UniProt:O00763
Test: ACC2 assay (spectrophotometric 384 well assay, NADH-linked kinetic method)
Assay type: biochemical
Conditions: hACC2 construct lacking 128 N-terminal amino acids; coupled lactate dehydrogenase/pyruvate kinase reaction, 340 nm, 25° C.
Measurement kind: IC50 (nM)

Molecule: C[C@H](NC(=O)Nc1ccon1)c1ccc(OC2CCN(c3ncnc(OCC4CC4)c3F)C2)cc1 (stereo partly shown)
Unit tag: nM
Observed value: 50
//
Molecule: CCN(CC)c1ncc(F)c(N2CC[C@@H](Oc3ccc([C@H](C)NC(C)=O)cc3)C2)n1
Unit tag: nM
Observed value: 69

[I] CCCN(C)c1ncc(Br)c(N2CC[C@@H](Oc3ccc([C@H](C)NC(C)=O)cc3)C2)n1
[II] CC(=O)N[C@@H](C)c1ccc(O[C@@H]2CCN(c3nccc(N4CC5(CCC5)C4)n3)C2)cc1
Query: Of the two listed items, which has the higher IC50? First: I Second: II Answer = label.
Result: II

----------
Target: UniProt:O00763
Experiment: ACC2 assay (spectrophotometric 384 well assay, NADH-linked kinetic method)
Assay type: biochemical
Settings: hACC2 construct lacking 128 N-terminal amino acids; coupled lactate dehydrogenase/pyruvate kinase reaction, 340 nm, 25° C.
Measurement kind: IC50 (nM)

Here is how some compounds turned out for IC50.
Compound: CC(=O)N[C@@H](C)c1ccc(O[C@@H]2CCN(c3ncnc(OC4CCOCC4)c3Cl)C2)cc1 [Example 7.64]
IC50, nM: 128

Compound: COC1CCCN(c2ncnc(N3CC[C@@H](Oc4ccc([C@H](C)NC(C)=O)cc4)C3)c2F)C1 (stereo partly shown) [Example 8.252]
IC50, nM: 1060

Compound: CC(=O)N[C@@H](C)c1ccc(O[C@@H]2CCN(c3ncnc(N4CC[C@@H](F)C4)c3F)C2)cc1 [Example 8.162]
IC50, nM: 476

[A] CC(=O)N[C@@H](C)c1ccc(O[C@@H]2CCN(c3nc(N(C)C4CCOCC4)ncc3F)C2)cc1 [Example 8.290]
[B] CC(=O)N[C@@H](C)c1ccc(O[C@@H]2CCN(c3ccnc(N(C)CC(C)C)n3)C2)cc1 [Example 8.171]
[C] CCOc1ncnc(N2CC[C@@H](Oc3ccc([C@H](C)NC(C)=O)cc3)C2)c1C [Example 7.24]
[D] COc1c(OCC2CC2)ncnc1N1CC[C@@H](Oc2ccc([C@H](C)NC(=O)c3cnco3)cc2)C1 [Example 2.27]
Query: Order the records, beginning with the lowest IC50 and ending with the highest. Returns: the labels arranged in the requested order.
Result: D, B, C, A

----------
Biological target: human ACC2 (Homo sapiens (Human), UniProt O00763)
Sequence (O00763 129-2458): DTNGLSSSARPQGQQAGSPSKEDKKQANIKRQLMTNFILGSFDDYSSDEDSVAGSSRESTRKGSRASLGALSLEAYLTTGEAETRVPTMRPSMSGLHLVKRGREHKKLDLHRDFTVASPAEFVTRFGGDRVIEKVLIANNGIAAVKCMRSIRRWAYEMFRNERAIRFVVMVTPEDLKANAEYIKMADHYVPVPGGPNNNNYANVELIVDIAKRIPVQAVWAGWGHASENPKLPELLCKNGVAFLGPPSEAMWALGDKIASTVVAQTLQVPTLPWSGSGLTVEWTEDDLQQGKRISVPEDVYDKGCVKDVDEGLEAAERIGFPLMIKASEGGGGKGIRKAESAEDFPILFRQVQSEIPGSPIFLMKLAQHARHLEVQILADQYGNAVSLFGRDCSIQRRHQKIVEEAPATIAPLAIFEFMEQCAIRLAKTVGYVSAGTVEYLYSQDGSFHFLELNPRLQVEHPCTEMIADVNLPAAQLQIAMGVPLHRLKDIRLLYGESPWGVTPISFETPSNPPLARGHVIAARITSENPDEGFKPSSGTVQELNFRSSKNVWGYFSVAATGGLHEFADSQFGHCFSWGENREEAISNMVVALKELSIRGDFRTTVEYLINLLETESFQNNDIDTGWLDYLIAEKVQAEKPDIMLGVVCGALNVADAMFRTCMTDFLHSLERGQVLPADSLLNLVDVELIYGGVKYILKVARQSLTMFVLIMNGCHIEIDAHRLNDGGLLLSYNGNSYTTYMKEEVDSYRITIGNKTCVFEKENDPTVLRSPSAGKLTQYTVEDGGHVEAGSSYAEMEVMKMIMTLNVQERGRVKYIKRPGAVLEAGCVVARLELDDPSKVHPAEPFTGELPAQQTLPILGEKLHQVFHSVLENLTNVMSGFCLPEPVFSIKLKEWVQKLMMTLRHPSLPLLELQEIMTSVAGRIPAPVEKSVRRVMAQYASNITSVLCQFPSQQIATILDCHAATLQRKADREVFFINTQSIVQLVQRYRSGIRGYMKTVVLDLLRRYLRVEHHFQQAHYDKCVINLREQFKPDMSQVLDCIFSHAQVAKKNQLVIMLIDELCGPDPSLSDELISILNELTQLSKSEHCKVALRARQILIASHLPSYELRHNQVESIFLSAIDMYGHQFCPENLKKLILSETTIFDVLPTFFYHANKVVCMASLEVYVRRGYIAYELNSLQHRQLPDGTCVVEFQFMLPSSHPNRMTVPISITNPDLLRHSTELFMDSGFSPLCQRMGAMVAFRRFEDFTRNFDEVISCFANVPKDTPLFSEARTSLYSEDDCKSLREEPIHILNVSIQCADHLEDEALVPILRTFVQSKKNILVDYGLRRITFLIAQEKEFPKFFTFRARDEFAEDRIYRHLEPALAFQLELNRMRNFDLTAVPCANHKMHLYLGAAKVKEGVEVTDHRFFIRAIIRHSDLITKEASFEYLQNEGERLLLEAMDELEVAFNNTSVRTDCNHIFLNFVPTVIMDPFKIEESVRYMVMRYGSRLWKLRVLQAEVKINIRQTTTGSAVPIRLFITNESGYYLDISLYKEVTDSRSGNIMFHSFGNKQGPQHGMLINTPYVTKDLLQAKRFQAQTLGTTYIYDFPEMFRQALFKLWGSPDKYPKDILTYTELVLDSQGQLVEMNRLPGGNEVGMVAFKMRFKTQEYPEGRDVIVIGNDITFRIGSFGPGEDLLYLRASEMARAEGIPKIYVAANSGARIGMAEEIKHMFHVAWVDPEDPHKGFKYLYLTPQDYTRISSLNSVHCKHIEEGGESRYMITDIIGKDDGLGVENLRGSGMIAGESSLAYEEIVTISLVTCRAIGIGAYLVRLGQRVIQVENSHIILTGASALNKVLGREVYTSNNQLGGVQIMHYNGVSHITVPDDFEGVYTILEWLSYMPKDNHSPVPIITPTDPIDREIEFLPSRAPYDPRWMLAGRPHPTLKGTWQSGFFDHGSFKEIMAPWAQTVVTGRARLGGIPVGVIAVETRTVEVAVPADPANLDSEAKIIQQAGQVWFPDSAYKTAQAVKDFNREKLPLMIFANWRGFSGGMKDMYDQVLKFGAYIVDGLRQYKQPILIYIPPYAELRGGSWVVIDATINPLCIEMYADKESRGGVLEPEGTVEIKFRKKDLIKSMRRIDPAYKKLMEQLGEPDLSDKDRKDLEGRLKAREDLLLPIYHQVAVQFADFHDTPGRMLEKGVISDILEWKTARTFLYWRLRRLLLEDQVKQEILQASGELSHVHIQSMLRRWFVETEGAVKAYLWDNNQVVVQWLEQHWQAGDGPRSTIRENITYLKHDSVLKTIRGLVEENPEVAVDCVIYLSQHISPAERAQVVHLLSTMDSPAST
Assay: ACC2 assay (spectrophotometric 384 well assay, NADH-linked kinetic method)
Type: biochemical
Conditions: hACC2 construct lacking 128 N-terminal amino acids; coupled lactate dehydrogenase/pyruvate kinase reaction, 340 nm, 25° C.
pIC50: −log10 of the molar value.
Measurement kind: pIC50

Line notation: COC[C@H](C)N(C)c1ncnc(N2CC[C@@H](Oc3ccc([C@H](C)NC(C)=O)cc3)C2)c1F
pIC50: 6.32

[1] CC(=O)N[C@@H](C)c1ccc(O[C@@H]2CCN(c3cc(OC4CCC4)ncn3)C2)cc1
[2] CCN(CCC#N)c1nccc(N2CC[C@@H](Oc3ccc([C@H](C)NC(C)=O)cc3)C2)n1
[3] CCCN(C)c1ccnc(N2CC[C@@H](Oc3ccc([C@H](C)NC(C)=O)cc3)C2)n1
Query: Arrange the 3 compounds from largest to smallest pIC50. Please list the labels in the order you were asked to rank them.
Result: 2, 1, 3
(2: 6.78, 1: 6.43, 3: 5.87)

These entries and their values trace back to patent US8962641B2.
